Biological target: T1, PUF4 RNA-binding domain (Saccharomyces cerevisiae, UniProt P25339 537-888)
T1 sequence: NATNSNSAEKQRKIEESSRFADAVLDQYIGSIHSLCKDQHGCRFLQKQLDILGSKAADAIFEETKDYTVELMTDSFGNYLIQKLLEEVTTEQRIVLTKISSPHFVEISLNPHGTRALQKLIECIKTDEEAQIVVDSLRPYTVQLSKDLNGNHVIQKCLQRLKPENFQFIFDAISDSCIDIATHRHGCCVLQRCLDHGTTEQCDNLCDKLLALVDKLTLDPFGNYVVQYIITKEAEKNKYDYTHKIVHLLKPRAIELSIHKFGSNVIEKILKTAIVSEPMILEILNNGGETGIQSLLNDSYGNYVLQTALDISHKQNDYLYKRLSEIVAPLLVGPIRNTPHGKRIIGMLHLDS
Assay: Mg; RNA-MaP; 20 mM Na-HEPES pH 7.4, 30 mM KOAc, 0.75 mM MgCl2, 0.1% Tween-20, 5% glycerol, 0.1 mg/mL BSA, 2 mM DTT; 25 C; 0.0125-409.6 nM protein
Conditions: tags: N-His6-TEV cleaved; C-SNAP kept, Cy3B-labelled; label: tethered on chip by stalled RNA polymerase
Threshold 50 nM. Kd below it: criterion met. Kd at it or above: criterion not met.

Prompt: Please let me know if UCUCUUUGUGUAUAUUAUCUCUCUU (ssRNA) [Id_ii_S1_P4E.2_K4.1_C4.2_[C-2T]_[T-1G]_H4.1_A4.1_F4.1_T4.2_[G10T]_[T11C]] shows Kd below 50 nM.
Completion: criterion met

Prompt: Please let me know if Id_ii_S4_P3E.4_K3.3_C3.2_H3.3_A3.1_F3.1_T3.2_[A10C] (ssRNA) RNA: UUUGACAACUGAUCGUUCUUUCUCUACACUAUAUCUUCUUUCUCGAUCAGUUGUCUUU shows Kd below 50 nM.
Completion: criterion not met

Prompt: Please let me know if UCUCUUUAACACUUAUUAAUUCUCUU (ssRNA) [Id_ii_S1_P5E.4_K5.3_C5.2_[C-2T]_[T-1A]_H5.3_A5.1_F5.1_T5.2_[T11A]_[A12T]] shows Kd below 50 nM.
Completion: criterion not met

Prompt: Please let me know if Ic_S2_P4E.1_K4.1_C4.1_H4.1_A4.1_[T5G]_[A6C]_[T7C]_F4.1_[A9T]_T4.1 (ssRNA) RNA: UUUGAUUAAUAUGAUAUCGUUCUUUCUUGUAGCCUUUUCUUUCUCGAUAUCAUAUUAAUCUUU shows Kd below 50 nM.
Completion: criterion met

Prompt: Please let me know if UCUCUUGUUGUAUAUAUUUCUCUU (ssRNA) [Id_ii_S1_P3E.2_K3.1_C3.2_[C-2G]_H3.1_A3.1_F3.1_T3.2_[A10T]] shows Kd below 50 nM.
Completion: criterion met

Prompt: Please let me know if UCUCUUUGUAUCUUCUCUCUU (ssRNA) [Ib_S1_P4E.1_K4.1_C4.1_H4.1_A4.1_[A6C]_F4.1_[A9C]_T4.1] shows Kd below 50 nM.
Completion: criterion not met

Prompt: Please let me know if UCUCUUUCACACUAUAUAUCUCUU (ssRNA) [Id_i_S1_P3E.4_K3.3_C3.2_[C-2T]_[T-1C]_H3.3_A3.1_F3.1_T3.2] shows Kd below 50 nM.
Completion: criterion not met
